assay: Cytotoxicity against human neutrophils assessed as cell viability up to 200 ug/mL after 30 mins by WST1 assay; assay type: cell-based, Neutrophil
Exercise: state measured viability at 0.5 h for each of the compounds provided.

Exercise: Please supply the value of reported viability at 0.5 h for the item CC(C)(C)[Si](C)(C)Oc1ccc(-c2n[nH]c(=S)s2)cc1
Solution: > 90%

Exercise: Please supply the value of reported viability at 0.5 h for the item S=c1[nH]nc(Cc2n[nH]c(=S)s2)s1
Solution: > 90%

Exercise: Please supply the value of reported viability at 0.5 h for the item CC(C)(C)[Si](C)(C)Oc1ccc(-c2n[nH]c(=S)o2)cc1
Solution: > 90%

###

assay: Noncompetitive inhibition of snake venom NPP1 by Dixon plot analysis; set-up: species or system Naja naja
Exercise: state measured pKi for each of the compounds provided.
Please treat pKi as minus the base-10 logarithm of the molar concentration.

Exercise: Please supply the value of reported pKi for the item Oc1cccc(-c2n[nH]c(=S)o2)c1
Solution: 2.98

Exercise: Please supply the value of reported pKi for the item CC(C)(C)[Si](C)(C)Oc1ccc(-c2n[nH]c(=S)o2)cc1
Solution: 3.43

Exercise: Please supply the value of reported pKi for the item S=c1[nH]nc(CCCc2n[nH]c(=S)o2)o1
Solution: 3.35

Exercise: Please supply the value of reported pKi for the item Oc1ccc(-c2n[nH]c(=S)o2)cc1
Solution: 2.94

Exercise: Please supply the value of reported pKi for the item S=c1[nH]nc(-c2ccncc2)s1
Solution: 3.28

Exercise: Please supply the value of reported pKi for the item S=c1[nH]nc(-c2ccc(OCc3ccccc3)cc2)o1
Solution: 2.85

Exercise: Please supply the value of reported pKi for the item Oc1ccc(-c2n[nH]c(=S)s2)cc1
Solution: 3.46

Exercise: Please supply the value of reported pKi for the item S=c1[nH]nc(Cc2n[nH]c(=S)o2)o1
Solution: 3.30

Exercise: Please supply the value of reported pKi for the item CC(C)(C)[Si](C)(C)Oc1ccc(-c2n[nH]c(=S)s2)cc1
Solution: 4.00

Exercise: Please supply the value of reported pKi for the item S=c1[nH]nc(Cc2n[nH]c(=S)s2)s1
Solution: 2.98

###

biological target: Ectonucleotide pyrophosphatase/phosphodiesterase family member 1 (Homo sapiens, UniProt P22413); test: Noncompetitive inhibition of human recombinant NPP1 by Dixon plot analysis
Sequence (P22413 whole entry): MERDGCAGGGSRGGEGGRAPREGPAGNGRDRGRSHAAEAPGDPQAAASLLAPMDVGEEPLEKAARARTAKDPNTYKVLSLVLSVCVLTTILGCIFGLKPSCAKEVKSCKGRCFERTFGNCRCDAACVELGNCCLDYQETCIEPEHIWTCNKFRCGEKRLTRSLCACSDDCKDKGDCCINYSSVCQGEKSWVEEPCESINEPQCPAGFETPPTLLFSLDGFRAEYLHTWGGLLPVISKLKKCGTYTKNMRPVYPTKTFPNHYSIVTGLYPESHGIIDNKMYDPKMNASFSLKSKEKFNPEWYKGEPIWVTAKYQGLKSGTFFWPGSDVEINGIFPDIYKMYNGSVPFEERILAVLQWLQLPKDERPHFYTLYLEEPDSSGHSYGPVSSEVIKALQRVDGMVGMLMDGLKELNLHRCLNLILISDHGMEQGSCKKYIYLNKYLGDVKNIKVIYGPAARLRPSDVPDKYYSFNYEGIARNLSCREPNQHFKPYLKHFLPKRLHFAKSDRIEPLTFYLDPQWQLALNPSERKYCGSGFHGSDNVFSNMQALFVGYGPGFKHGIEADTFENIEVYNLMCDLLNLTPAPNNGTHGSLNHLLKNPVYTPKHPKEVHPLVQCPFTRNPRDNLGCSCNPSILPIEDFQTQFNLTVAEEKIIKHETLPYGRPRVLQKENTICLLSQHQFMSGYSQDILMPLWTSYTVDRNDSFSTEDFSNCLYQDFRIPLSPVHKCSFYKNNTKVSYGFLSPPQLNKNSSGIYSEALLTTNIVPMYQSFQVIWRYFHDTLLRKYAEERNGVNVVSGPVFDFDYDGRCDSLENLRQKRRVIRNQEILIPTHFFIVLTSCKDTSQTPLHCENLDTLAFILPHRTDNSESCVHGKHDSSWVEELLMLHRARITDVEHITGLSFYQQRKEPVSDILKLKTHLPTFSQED
MEASUREMENT KIND: pKi
Please treat pKi as minus the base-10 logarithm of the molar concentration.

Exercise: Please supply the value of reported pKi for the item S=c1[nH]nc(CCCc2n[nH]c(=S)o2)o1
Solution: 3.82

Exercise: Please supply the value of reported pKi for the item S=c1[nH]nc(-c2cccc(OCc3ccccc3)c2)o1
Solution: 3.44

Exercise: Please supply the value of reported pKi for the item Oc1ccc(-c2n[nH]c(=S)s2)cc1
Solution: 3.07

Exercise: Please supply the value of reported pKi for the item CC(C)(C)[Si](C)(C)Oc1ccc(-c2n[nH]c(=S)o2)cc1
Solution: 3.44

Exercise: Please supply the value of reported pKi for the item S=c1[nH]nc(-c2ccc(OCc3ccccc3)cc2)o1
Solution: 3.07

###

assay: Inhibition of snake venom NPP1 assessed as release of p-nitrophenol after 30 mins by microtitre plate spectrophotometry; set-up: species or system Naja naja; details: read-out: IC50
yes (1) if IC50 is below 700 µM. no (0) if not; exact matches included in no (0).

Exercise: # TODO verify IC50 < 700 µM strictly for this molecule: S=c1[nH]nc(C(c2ccccc2)c2ccccc2)s1
Solution: no (0)

Exercise: # TODO verify IC50 < 700 µM strictly for this molecule: CCCCCCCCn1nc(-c2ccc(OCc3ccccc3)cc2)oc1=S
Solution: no (0)

Exercise: # TODO verify IC50 < 700 µM strictly for this molecule: S=c1[nH]nc(-c2ccncc2)o1
Solution: no (0)

Exercise: # TODO verify IC50 < 700 µM strictly for this molecule: S=c1[nH]nc(-c2cccc(OCc3ccccc3)c2)o1
Solution: no (0)

Exercise: # TODO verify IC50 < 700 µM strictly for this molecule: CC(C)(C)[Si](C)(C)Oc1ccc(-c2n[nH]c(=S)o2)cc1
Solution: yes (1)

Exercise: # TODO verify IC50 < 700 µM strictly for this molecule: S=c1[nH]nc(Cc2n[nH]c(=S)s2)s1
Solution: no (0)

Exercise: # TODO verify IC50 < 700 µM strictly for this molecule: CC(C)(C)[Si](C)(C)Oc1ccc(-c2n[nH]c(=S)s2)cc1
Solution: yes (1)

Exercise: # TODO verify IC50 < 700 µM strictly for this molecule: Oc1ccc(-c2n[nH]c(=S)o2)cc1
Solution: no (0)

Exercise: # TODO verify IC50 < 700 µM strictly for this molecule: S=c1[nH]nc(Cc2n[nH]c(=S)o2)o1
Solution: no (0)

Exercise: # TODO verify IC50 < 700 µM strictly for this molecule: S=c1[nH]nc(CCCc2n[nH]c(=S)o2)o1
Solution: yes (1)

Exercise: # TODO verify IC50 < 700 µM strictly for this molecule: Oc1cccc(-c2n[nH]c(=S)o2)c1
Solution: no (0)

Exercise: # TODO verify IC50 < 700 µM strictly for this molecule: S=c1[nH]nc(-c2ccncc2)s1
Solution: yes (1)

Exercise: # TODO verify IC50 < 700 µM strictly for this molecule: S=c1[nH]nc(-c2ccc(OCc3ccccc3)cc2)o1
Solution: no (0)

Exercise: # TODO verify IC50 < 700 µM strictly for this molecule: Oc1ccc(-c2n[nH]c(=S)s2)cc1
Solution: yes (1)
